Reference source for all entries: paper PMC5190049

# target.or.test.system: hnRNPA1 (UP1) (Homo sapiens, UniProt P09651)
# Sequence (P09651 1-196): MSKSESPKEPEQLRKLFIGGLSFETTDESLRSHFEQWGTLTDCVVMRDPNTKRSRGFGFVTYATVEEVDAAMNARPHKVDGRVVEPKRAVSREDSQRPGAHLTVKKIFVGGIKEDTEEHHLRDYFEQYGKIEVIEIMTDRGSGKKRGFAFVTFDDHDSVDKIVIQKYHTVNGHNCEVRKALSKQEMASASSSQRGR
property.measured: Kd (µM)

>>> measured_number("CC(C)=CC[C@@H](O)C1=CC(=O)c2c(O)ccc(O)c2C1=O [shikonin]")
71.2
